Hey, just so you know, these numbers are from PubChem BioAssay.

Item-by-item account of composite z-score
- method: anti-His antibody binders, primary screen, artefact control for SMM control protein annotation, biochemical, small-molecule microarray, 635 nm fluorescence (AID 1128);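 also: score merges feature fluorescence with signal-to-noise for each printed compound spot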
- condition: anti-His Alexa647 antibody binding, higher = more signal

{"testSmiles": "O=C1C[C@]2(c3ccc([N+](=O)[O-])cc3)C(=O)N(CC(F)(F)F)c3cc(CO)ccc3[C@H]2N1C1CCCCC1", "composite z-score": -1.55}
{"testSmiles": "CN(C)CCCC[C@@H]1NC(=O)[C@H]2C[C@@H](C(=O)NCCCCCCN)[C@@H](c3ccc(O)cc3)N2C1=O", "composite z-score": 2.07}
{"testSmiles": "C=CCOC(=O)[C@H]1[C@@H]2C(=O)O[C@@H](c3ccccc3)[C@@H](c3ccccc3)N2[C@@H](c2ccc(OCCOC(=O)[C@@H]3C[C@@H]4C(=O)N[C@@H](CCCCNC(C)=O)C(=O)N4[C@@H]3c3ccc(O)cc3)cc2)[C@]12C(=O)Nc1ccccc12", "composite z-score": 3.17}
{"testSmiles": "C=C[C@H](C)[C@@H](OC(=O)Nc1ccc(OC)cc1)c1ccc(O)c2ccccc12", "composite z-score": 0.965}
{"testSmiles": "C=CCOC(=O)[C@@H]1[C@H]2C(=O)O[C@H](c3ccccc3)[C@H](c3ccccc3)N2[C@H](c2ccc(OCCOC(=O)[C@H]3C[C@H]4C(=O)N5CCC[C@H]5C(=O)N4[C@H]3c3ccc(O)cc3)cc2)[C@@]12C(=O)Nc1ccc(I)cc12", "composite z-score": 2.01}
{"testSmiles": "COC(=O)[C@@]1(Cc2ccc(OC)cc2)[C@H]2c3cc(C(=O)N4CCCC4)n(Cc4ccc(C)c(F)c4F)c3C[C@H]2CN1C(=O)c1ccccc1", "composite z-score": 1.39}
